Data credit: ChEMBL document CHEMBL1136802

Assayed Target: Epidermal growth factor receptor (Homo sapiens)
Sequence (P00533 whole entry): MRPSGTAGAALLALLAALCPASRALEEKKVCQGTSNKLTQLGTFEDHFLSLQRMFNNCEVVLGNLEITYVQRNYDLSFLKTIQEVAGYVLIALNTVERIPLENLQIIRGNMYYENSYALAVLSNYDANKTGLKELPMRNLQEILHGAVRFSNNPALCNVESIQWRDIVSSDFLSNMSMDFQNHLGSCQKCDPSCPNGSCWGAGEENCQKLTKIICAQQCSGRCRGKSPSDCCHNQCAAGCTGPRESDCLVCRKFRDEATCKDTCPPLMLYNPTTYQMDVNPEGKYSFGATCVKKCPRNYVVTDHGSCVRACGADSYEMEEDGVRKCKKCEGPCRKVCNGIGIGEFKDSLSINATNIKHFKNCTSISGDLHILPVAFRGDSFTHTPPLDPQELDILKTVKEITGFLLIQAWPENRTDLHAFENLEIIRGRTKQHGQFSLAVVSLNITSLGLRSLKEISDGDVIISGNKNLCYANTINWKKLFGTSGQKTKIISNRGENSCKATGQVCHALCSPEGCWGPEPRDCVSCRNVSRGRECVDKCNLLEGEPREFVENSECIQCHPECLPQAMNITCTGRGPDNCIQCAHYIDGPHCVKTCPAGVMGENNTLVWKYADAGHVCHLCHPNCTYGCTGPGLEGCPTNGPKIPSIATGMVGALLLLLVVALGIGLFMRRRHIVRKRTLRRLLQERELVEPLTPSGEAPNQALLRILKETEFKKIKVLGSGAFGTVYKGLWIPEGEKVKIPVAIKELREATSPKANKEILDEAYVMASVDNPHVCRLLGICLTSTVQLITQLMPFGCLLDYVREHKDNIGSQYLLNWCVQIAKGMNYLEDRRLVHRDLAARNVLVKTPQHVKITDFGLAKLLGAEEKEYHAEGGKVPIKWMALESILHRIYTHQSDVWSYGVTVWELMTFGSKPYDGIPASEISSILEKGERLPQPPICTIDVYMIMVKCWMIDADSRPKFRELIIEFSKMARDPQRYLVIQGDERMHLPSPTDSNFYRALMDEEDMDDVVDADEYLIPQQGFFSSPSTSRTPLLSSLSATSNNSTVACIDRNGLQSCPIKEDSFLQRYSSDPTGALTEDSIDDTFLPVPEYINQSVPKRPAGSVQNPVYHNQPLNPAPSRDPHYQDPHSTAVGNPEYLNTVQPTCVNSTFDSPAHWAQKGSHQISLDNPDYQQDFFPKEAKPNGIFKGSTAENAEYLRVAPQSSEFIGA
Assay Comment: Inhibitory activity against epidermal growth factor receptor (EGFR)
pIC50: −log10 of the molar value.
Returns one of T or F; T when pIC50 is >= 5.

                                smiles_data  class_assignment
0        COc1cc(C=C(C#N)C#N)cc(SCC(=O)O)c1O                 F
1  COc1cc(/C=C(\C#N)C(N)=O)cc(CSc2nc3cc(Cl)ccc3s2)c1O                 F
2  N#C/C(=C\c1ccc(O)c(O)c1)C(=O)NCCc1ccccc1                 T
3  N#C/C(=C\c1ccc(O)c(O)c1)C(=O)NCc1ccc(O)cc1                 T
4  Cc1cc(C)c(C(=O)/C(C#N)=C/c2ccc(O)c(O)c2)c(C)c1                 F
5  Cc1cc(C)c(NC(=O)/C(C#N)=C/c2ccc(O)c(O)c2)c(C)c1                 F
